Each recorded value in this set is attributed to patent US20250382344A1.

system-under-test: human GLP-1 receptor (human, UniProt P43220 24-463)
assay-comment: cell-based or functional assay
measured-parameter: EC50, CreLuc reporter, 100% hP (nM)
Report as a plain number; the unit nM is understood.

binder: YXEGTFTSDYSIXLEKQAEXAFVRHLINKXTRQRY (Aib at 2, 20, 30; aMeL at 13; Lys29 epsilon-amino: C20DA-gGlu-gGlu-gGlu-gGlu-gGlu-gGlu-eLys; C-terminal amide) [Compound 103]
unit-text: nM
EC50, CreLuc reporter, 100% hP: 0.6
//
binder: YXEGTFTSDYSIXLEKQAQXEFVRHLINKXTRQRY (Aib at 2, 13, 20, 30; Lys29 epsilon-amino: C20DA-gGlu-gGlu-gGlu-gGlu-gGlu-gGlu-eLys; C-terminal amide) [Compound 149]
unit-text: nM
EC50, CreLuc reporter, 100% hP: 3.3

Now let's try a different one.
*Q* Give reported EC50, CreLuc reporter, 100% hP value for YXEGTFTSDYSIXLEKQAQXAFIRHLINKXTRQRY (Aib at 2, 13, 20, 30; Lys29 epsilon-amino: C18DA-gGlu-gGlu-gGlu-gGlu-gGlu-gGlu-eLys; C-terminal amide) [Compound 88]
*A* 1.8
